These entries and their values trace back to paper PMC8498988.

Target system: D4R (Homo sapiens, UniProt P21917)
Sequence (P21917 whole entry): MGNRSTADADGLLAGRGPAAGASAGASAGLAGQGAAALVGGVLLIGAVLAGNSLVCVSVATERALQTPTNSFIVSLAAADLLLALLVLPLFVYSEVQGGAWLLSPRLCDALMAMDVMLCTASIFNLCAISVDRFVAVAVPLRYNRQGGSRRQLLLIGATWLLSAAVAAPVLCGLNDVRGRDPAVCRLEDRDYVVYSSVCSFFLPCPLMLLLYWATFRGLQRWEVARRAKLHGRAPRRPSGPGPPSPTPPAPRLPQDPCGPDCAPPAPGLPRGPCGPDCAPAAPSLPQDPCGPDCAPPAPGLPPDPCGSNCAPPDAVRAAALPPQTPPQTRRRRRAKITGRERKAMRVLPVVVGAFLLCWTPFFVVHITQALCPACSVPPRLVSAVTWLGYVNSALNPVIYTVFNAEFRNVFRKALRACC
Assay name: D4 adenylate cyclase/cAMP functional assay (HEK-D4.4-AC1 cells)
Experimental setup: agonist mode, inhibition of forskolin-stimulated cAMP formation
Experimental: HEK-D4.4-AC1 cells are grown to confluency on […]. The cells are plated at a density of 375,000 cells per well in 48-well plates in DMEM supplemented with 5% FetalClone, 5% BCS, and pen-strep. After ∼36 h, the medium is changed to DMEM supplemented with 10% charcoal-stripped FetalClone and pen-strep. The medium is removed ∼18 h later. […] Adenylate cyclase activity is measured using a cyclic AMP EIA kit (Cayman). […] After a 2 hour incubation in the dark on a rotator, the plates are read at 410 nm. […]
pEC50: −log10 of the molar value.
Each entry below lists one item and its recorded pEC50 value.

- Compound: "O=C(NCCCCN1CCN(c2cccc(Cl)c2Cl)CC1)C1COc2ccccc2O1 (centres unmarked)"
  pEC50: 7.82
- Compound: "O=C(NCCCCN1CCN(c2cccc(Cl)c2Cl)CC1)C1COC(c2ccccc2)(c2ccccc2)CO1 (centres unmarked)"
  pEC50: 7.66

* * *

Target system: D4R (Homo sapiens, UniProt P21917)
Assay name: Radioligand competition binding at human D4R ([3H]N-methylspiperone, HEK293 membranes)
Set-up: expressed in transfected cells; host or cells: HEK293
Experimental setup: test compound concentration of 10 μM, read-out: inhibition percentage of the radioligand binding, D4R
Each entry below lists one item and its recorded inhibition at 10 µM value.
Measured endpoint: inhibition at 10 µM

- Compound: "O=C(NCCC(F)CN1CCN(c2cccc(Cl)c2Cl)CC1)C1COc2ccccc2O1 (stereo not shown) [11a]"
  Meas value: "29.4%"
- Compound: "O=C(NCCC(O)CN1CCN(c2cccc(Cl)c2Cl)CC1)C1COCC(c2ccccc2)(c2ccccc2)O1 (stereo not shown)"
  Meas value: "39.2%"
- Compound: "O=C(NCCC(F)CN1CCN(c2cccc(Cl)c2Cl)CC1)C1COC(c2ccccc2)(c2ccccc2)CO1 (stereo not shown)"
  Meas value: "43.6%"
- Compound: "O=C(NCCC(F)CN1CCN(c2cccc(Cl)c2Cl)CC1)C1COCC(c2ccccc2)(c2ccccc2)O1 (stereo not shown)"
  Meas value: "19.1%"

* * *

Target system: D2R (Homo sapiens, UniProt P14416)
Sequence (P14416 whole entry): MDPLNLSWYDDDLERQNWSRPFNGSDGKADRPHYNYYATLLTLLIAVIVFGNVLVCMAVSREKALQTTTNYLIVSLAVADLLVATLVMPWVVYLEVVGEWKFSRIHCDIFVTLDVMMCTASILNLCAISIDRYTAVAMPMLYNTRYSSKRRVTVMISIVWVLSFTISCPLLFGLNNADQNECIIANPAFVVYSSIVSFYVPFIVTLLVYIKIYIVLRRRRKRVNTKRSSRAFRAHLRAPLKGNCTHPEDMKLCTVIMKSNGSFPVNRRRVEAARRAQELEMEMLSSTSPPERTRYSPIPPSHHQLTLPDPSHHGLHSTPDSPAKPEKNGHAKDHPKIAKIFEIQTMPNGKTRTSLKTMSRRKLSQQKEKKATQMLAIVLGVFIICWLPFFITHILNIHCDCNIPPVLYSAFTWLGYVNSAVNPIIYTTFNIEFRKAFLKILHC
Assay name: Radioligand competition binding at human D2R ([3H]N-methylspiperone, HEK293 membranes)
Parameters: expressed in transfected cells; host or cells: HEK293
Experimental setup: HEK 293 cells expressing hD2R, read-out: Ki ± SEM, D2R
pKi: −log10 of the molar value.
Measured endpoint: pKi

- Molecule: "O=C(NCCCCN1CCN(c2cccc(Cl)c2Cl)CC1)C1COCC(c2ccccc2)(c2ccccc2)O1 (stereo not shown)"
  Target system: "D2R (Homo sapiens, UniProt P14416)"
  Meas value: 6.47
- Molecule: "O=C(NCCC(F)CN1CCN(c2cccc(Cl)c2Cl)CC1)C1COC(c2ccccc2)(c2ccccc2)CO1 (stereo not shown)"
  Target system: "D2R (Homo sapiens, UniProt P14416)"
  Meas value: 5.92
- Molecule: "O=C(NCCCCN1CCN(c2cccc(Cl)c2Cl)CC1)C1COc2ccccc2O1 (stereo not shown)"
  Target system: "D2R (Homo sapiens, UniProt P14416)"
  Meas value: 7.33
- Molecule: "O=C(NCCC(O)CN1CCN(c2cccc(Cl)c2Cl)CC1)C1COc2ccccc2O1 (stereo not shown) [10b]"
  Target system: "D2R (Homo sapiens, UniProt P14416)"
  Meas value: 6.11
- Molecule: "O=C(NCCC(O)CN1CCN(c2cccc(Cl)c2Cl)CC1)C1COc2ccccc2O1 (stereo not shown) [10a]"
  Target system: "D2R (Homo sapiens, UniProt P14416)"
  Meas value: 5.96
- Molecule: "O=C(NCCCCN1CCN(c2cccc(Cl)c2Cl)CC1)C1COC(c2ccccc2)(c2ccccc2)CO1 (stereo not shown)"
  Target system: "D2R (Homo sapiens, UniProt P14416)"
  Meas value: 7.54
- Molecule: "O=C(NCCC(O)CN1CCN(c2cccc(Cl)c2Cl)CC1)C1COC(c2ccccc2)(c2ccccc2)CO1 (stereo not shown)"
  Target system: "D2R (Homo sapiens, UniProt P14416)"
  Meas value: 6.28

* * *

Target system: D3R (Homo sapiens)
Sequence (P35462 whole entry): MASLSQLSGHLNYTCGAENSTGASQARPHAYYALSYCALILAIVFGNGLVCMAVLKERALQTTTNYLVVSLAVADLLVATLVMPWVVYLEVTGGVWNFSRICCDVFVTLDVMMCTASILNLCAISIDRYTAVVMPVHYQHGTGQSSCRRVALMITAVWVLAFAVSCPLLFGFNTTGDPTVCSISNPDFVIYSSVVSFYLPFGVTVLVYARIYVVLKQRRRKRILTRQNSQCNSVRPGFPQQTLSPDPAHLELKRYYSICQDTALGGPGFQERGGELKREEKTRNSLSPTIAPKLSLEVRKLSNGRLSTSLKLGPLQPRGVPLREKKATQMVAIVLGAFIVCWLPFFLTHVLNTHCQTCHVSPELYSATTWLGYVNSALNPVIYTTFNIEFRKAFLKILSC
Assay name: Radioligand competition binding at human D3R ([3H]N-methylspiperone, HEK293 membranes)
Design: expressed in transfected cells; host or cells: HEK293
Experimental setup: ratio of Ki values D2R/D3R
Description: The novel hybrid derivatives 3–11 were tested at hD2R, hD3R, or hD4R stably expressed in HEK293 cells by competition binding assays, using [^3H]N-methylspiperone as the radioligand, to evaluate their D2-like affinity and subtype selectivity, following the previously reported procedures.[41],[45],[46] Binding at dopamine D2-like receptors was determined using previously described methods.[41],[45],[46] […]

- Compound: "O=C(NCCCCN1CCN(c2cccc(Cl)c2Cl)CC1)C1COc2ccccc2O1 (stereo not shown) [compound 9]"
  Target system: "D3R (Homo sapiens)"
  D2/D3: 22
- Compound: "O=C(NCCC(O)CN1CCN(c2cccc(Cl)c2Cl)CC1)C1COc2ccccc2O1 (stereo not shown) [10a]"
  Target system: "D3R (Homo sapiens)"
  D2/D3: 25
- Compound: "O=C(NCCC(F)CN1CCN(c2cccc(Cl)c2Cl)CC1)C1COC(c2ccccc2)(c2ccccc2)CO1 (stereo not shown) [compound 8]"
  Target system: "D3R (Homo sapiens)"
  D2/D3: 4
- Compound: "O=C(NCCCCN1CCN(c2cccc(Cl)c2Cl)CC1)C1COC(c2ccccc2)(c2ccccc2)CO1 (stereo not shown) [compound 6]"
  Target system: "D3R (Homo sapiens)"
  D2/D3: 18

* * *

Each entry below lists one item and its recorded Ki value.
Target system: human D1R (Homo sapiens)
Construct: expressed in transfected cells; host or cells: mouse fibroblast cells (LhD1)
Sequence (P21728 whole entry): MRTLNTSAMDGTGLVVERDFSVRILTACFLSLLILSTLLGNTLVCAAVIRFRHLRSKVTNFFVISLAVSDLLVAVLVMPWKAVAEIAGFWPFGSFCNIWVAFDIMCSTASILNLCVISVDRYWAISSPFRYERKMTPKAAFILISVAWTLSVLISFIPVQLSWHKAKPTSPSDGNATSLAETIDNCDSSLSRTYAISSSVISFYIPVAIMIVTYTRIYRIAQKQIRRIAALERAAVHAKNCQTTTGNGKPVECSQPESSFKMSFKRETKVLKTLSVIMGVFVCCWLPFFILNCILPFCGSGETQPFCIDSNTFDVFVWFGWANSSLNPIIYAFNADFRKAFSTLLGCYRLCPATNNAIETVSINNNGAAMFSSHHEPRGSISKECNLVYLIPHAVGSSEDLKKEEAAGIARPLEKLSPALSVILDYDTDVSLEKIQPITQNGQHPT
Assay name: Radioligand binding assay at human D1R ([3H]SCH23390, mouse fibroblast LhD1 cells)
Experimental setup: [3H]SCH23390, mouse fibroblast cells expressing hD1R; read-out: Ki ± SEM, D1R

- Compound: "O=C(NCCCCN1CCN(c2cccc(Cl)c2Cl)CC1)C1COC(c2ccccc2)(c2ccccc2)CO1 (stereo not drawn)"
  Ki [nM]: 700
- Compound: "O=C(NCCCCN1CCN(c2cccc(Cl)c2Cl)CC1)C1COCC(c2ccccc2)(c2ccccc2)O1 (stereo not drawn)"
  Ki [nM]: 442
- Compound: "O=C(NCCCCN1CCN(c2cccc(Cl)c2Cl)CC1)C1COc2ccccc2O1 (stereo not drawn)"
  Ki [nM]: 680

* * *

Each entry below lists one item and its recorded IC50 value.
Target system: D2R (Homo sapiens, UniProt P14416)
Assay name: D2 mitogenesis functional assay (CHOp-D2 cells)
Experimental setup: antagonist mode, inhibition of quinpirole stimulation of mitogenesis
Measured endpoint: IC50

- Compound: "O=C(NCCCCN1CCN(c2cccc(Cl)c2Cl)CC1)C1COc2ccccc2O1 (stereo not drawn)"
  Target system: "D2R (Homo sapiens, UniProt P14416)"
  Meas value: "0.04 µM"
- Compound: "O=C(NCCCCN1CCN(c2cccc(Cl)c2Cl)CC1)C1COCC(c2ccccc2)(c2ccccc2)O1 (stereo not drawn)"
  Target system: "D2R (Homo sapiens, UniProt P14416)"
  Meas value: "0.139 µM"
- Compound: "O=C(NCCCCN1CCN(c2cccc(Cl)c2Cl)CC1)C1COC(c2ccccc2)(c2ccccc2)CO1 (stereo not drawn)"
  Target system: "D2R (Homo sapiens, UniProt P14416)"
  Meas value: "0.0085 µM"

* * *

Where a name gives a salt, the structure may show the parent alone.
Each entry below lists one item and its recorded melting point value.

- Compound: "O=C(NCCC(O)CN1CCN(c2cccc(Cl)c2Cl)CC1)C1COCC(c2ccccc2)(c2ccccc2)O1 (single isomer, unassigned) (as salt: oxalate) [4a]"
  melting point: "146 to 147 °C"
- Compound: "O=C(NCCCCN1CCN(c2cccc(Cl)c2Cl)CC1)C1COCC(c2ccccc2)(c2ccccc2)O1 (stereo not drawn) (as salt: oxalate) [compound 3]"
  melting point: "107 to 108 °C"
- Compound: "O=C(NCCCCN1CCN(c2cccc(Cl)c2Cl)CC1)C1COc2ccccc2O1 (stereo not drawn) (as salt: oxalate) [compound 9]"
  melting point: "167 to 168 °C"
- Compound: "O=C(NCCC(O)CN1CCN(c2cccc(Cl)c2Cl)CC1)C1COc2ccccc2O1 (single isomer, unassigned) (as salt: oxalate) [10a]"
  melting point: "88 to 89 °C"
- Compound: "O=C(NCCCCN1CCN(c2cccc(Cl)c2Cl)CC1)C1COC(c2ccccc2)(c2ccccc2)CO1 (stereo not drawn) (as salt: oxalate) [compound 6]"
  melting point: "94 to 95 °C"
- Compound: "O=C(NCCC(F)CN1CCN(c2cccc(Cl)c2Cl)CC1)C1COCC(c2ccccc2)(c2ccccc2)O1 (stereo not drawn) (as salt: oxalate) [compound 5]"
  melting point: "100 to 101 °C"
